Just for reference, patent US20180099937A1 is where these values come from.

study system: SMYD2 (Homo sapiens)
protocol text: Scintillation Proximity Assay (SPA) for detection of SMYD2 enzymatic inhibition
Type: biochemical
Set-up: The SMYD2 full length enzyme was produced in-house by expression (with an N-terminal 6× His tag) in E. coli; 6xHis (N); made in house; host or cells: E. coli
study conditions: SMYD2 full length enzyme, p53 Peptide substrate 1.0 μM, 3H-SAM 60 nM; read-out: IC50 [mol/l] (SPA Assay)
pIC50: −log10 of the molar value.
reported property: pIC50

Reference set, count: 5
>  <compound>
C[C@]1(C(=O)NC2CN(/C(=N\C#N)Nc3cccc(OC(F)F)c3)N=C2c2ccc(Cl)c(Cl)c2)CCCN1 (single isomer, unassigned) [Example 6.1]

>  <study system>
SMYD2 (Homo sapiens)

>  <pIC50>
7.92

$$$$
>  <compound>
CCN(C(=O)[C@H]1CCCN1)C1CN(/C(=N\C#N)Nc2ccc(F)c(OC(F)F)c2)N=C1c1ccc(Cl)c(Cl)c1 (mixture of isomers)

>  <study system>
SMYD2 (Homo sapiens)

>  <pIC50>
7.61

$$$$
>  <compound>
CCN(C(=O)[C@H]1CCN1)C1CN(/C(=N\C#N)Nc2cc(F)cc(OC(F)(F)F)c2)N=C1c1ccc(Cl)c(Cl)c1 (mixture of isomers)

>  <study system>
SMYD2 (Homo sapiens)

>  <pIC50>
7.36

$$$$
>  <compound>
CCN(C(=O)[C@H]1CCCN1)C1CN(/C(=N\C#N)Nc2cc(OC)ccc2C)N=C1c1ccc(Cl)c(Cl)c1 (mixture of isomers)

>  <study system>
SMYD2 (Homo sapiens)

>  <pIC50>
6.21

$$$$
>  <compound>
CCN(C(=O)[C@H]1CCCN1)C1CN(/C(=N\C#N)Nc2cccc(CC(F)(F)F)c2)N=C1c1ccc(Cl)c(Cl)c1 (mixture of isomers) [Example 31]

>  <study system>
SMYD2 (Homo sapiens)

>  <pIC50>
7.63

$$$$

A = CCN(C(=O)[C@H]1C[C@@H](F)CN1)C1CN(/C(=N\C#N)Nc2cc(F)cc(OC(F)(F)F)c2)N=C1c1ccc(Cl)c(Cl)c1 (mixture of isomers) [Example 25]
B = CCN(C(=O)[C@H]1CCCN1)C1CN(/C(=N\C#N)Nc2cc(OC(F)(F)F)ccc2OC)N=C1c1ccc(Cl)c(Cl)c1 (mixture of isomers)
// returns A or B , whichever has the lower pIC50 Identify your selection by its label. A
(A: 6.28, B: 7.76)

P = N#C/N=C(/Nc1cccc(OC(F)F)c1)N1CC(NC(=O)C(N)(C2CC2)C2CC2)C(c2ccc(Cl)c(Cl)c2)=N1 (racemic)
Q = CCN(C(=O)[C@H]1C[C@@H](F)CN1)C1CN(/C(=N\C#N)Nc2cccc(OC(F)F)c2)N=C1c1ccc(Cl)c(Cl)c1 (single isomer, unassigned) [Example 4.1]
In the pair P and Q , the larger recorded pIC50 belongs to which? Your answer should be the label attached to the chosen record. Q
(Q: 7.40, P: 6.29)

---

study system: SMYD2 (Homo sapiens, UniProt Q9NRG4)
Sequence (Q9NRG4 whole entry): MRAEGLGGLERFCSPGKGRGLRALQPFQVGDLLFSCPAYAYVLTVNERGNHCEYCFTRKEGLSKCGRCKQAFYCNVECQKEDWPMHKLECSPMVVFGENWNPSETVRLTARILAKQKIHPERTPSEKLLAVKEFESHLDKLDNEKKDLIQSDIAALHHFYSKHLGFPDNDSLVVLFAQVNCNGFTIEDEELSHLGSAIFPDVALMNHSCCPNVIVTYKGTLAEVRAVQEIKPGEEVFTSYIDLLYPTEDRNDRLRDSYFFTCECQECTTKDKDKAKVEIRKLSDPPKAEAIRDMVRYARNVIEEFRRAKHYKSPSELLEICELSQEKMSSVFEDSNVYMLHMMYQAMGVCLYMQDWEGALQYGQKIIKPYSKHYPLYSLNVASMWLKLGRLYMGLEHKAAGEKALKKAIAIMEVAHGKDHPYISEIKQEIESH
protocol text: Scintillation Proximity Assay (SPA) for detection of SMYD2 enzymatic inhibition
Format: biochemical
Parameters: The SMYD2 full length enzyme was produced in-house by expression (with an N-terminal 6× His tag) in E. coli; 6xHis (N); made in house; host or cells: E. coli
study conditions: SMYD2 full length enzyme, p53 Peptide substrate 1.0 μM, 3H-SAM 60 nM; read-out: IC50 [mol/l] (SPA Assay)
pIC50: −log10 of the molar value.
reported property: pIC50

>  <compound>
CCN(C(=O)[C@H]1CCCN1)C1CN(/C(=N\C#N)Nc2cccc(CC(F)(F)F)c2)N=C1c1ccc(Cl)c(Cl)c1 (single isomer, unassigned) [Example 31.1]

>  <assay result>
7.47

$$$$
>  <compound>
CCN(C(=O)[C@H]1C[C@@H](O)CN1)C1CN(/C(=N\C#N)Nc2cccc(OC(F)F)c2)N=C1c1ccc(Cl)c(C)c1 (single isomer, unassigned) [Example 39.2]

>  <assay result>
5.79

$$$$

A = CCN(C(=O)c1cccc(=O)[nH]1)C1CN(/C(=N\C#N)Nc2cccc(OC(F)F)c2)N=C1c1ccc(Cl)c(Cl)c1 (racemic) [Example 5]
B = CCN(C(=O)[C@H]1C[C@@H](F)CN1)C1CN(/C(=N\C#N)Nc2cccc(OC(F)F)c2)N=C1c1ccc(Cl)c(Cl)c1 (mixture of isomers) [Example 4]
C = CCN(C(=O)[C@H]1CCCN1)C1CN(/C(=N\C#N)Nc2cc(F)cc(OC(F)(F)F)c2)N=C1c1ccc(Cl)c(Cl)c1 (single isomer, unassigned) [Example 24.2]
Would you mind ranking these compounds by ascending pIC50? Arrange the labels as the request states and list them. C, A, B

---

study system: SMYD2 (Homo sapiens)
protocol text: Scintillation Proximity Assay (SPA) for detection of SMYD2 enzymatic inhibition
Assay type: biochemical
Design: The SMYD2 full length enzyme was produced in-house by expression (with an N-terminal 6× His tag) in E. coli; 6xHis (N); made in house; host or cells: E. coli
study conditions: SMYD2 full length enzyme, p53 Peptide substrate 1.0 μM, 3H-SAM 60 nM; read-out: IC50 [mol/l] (SPA Assay)
pIC50: −log10 of the molar value.
reported property: pIC50

>  <compound>
CCN(C(=O)[C@@H]1CCC[C@@H]1N)C1CN(/C(=N\C#N)Nc2cccc(OC(F)F)c2)N=C1c1ccc(Cl)c(Cl)c1 (relative stereo)

>  <assay result>
6.71

$$$$

a = CN(C(=O)[C@H]1C[C@@H](O)CN1)C1CN(/C(=N\C#N)Nc2cccc(OC(F)F)c2)N=C1c1ccc(Cl)c(Cl)c1 (mixture of isomers)
b = N#C/N=C(/Nc1cccc(OC(F)F)c1)N1CC(NC(=O)C2(N)CCCC2)C(c2ccc(Cl)c(Cl)c2)=N1 (racemic)
c = CCN(C(=O)[C@H]1CCCN1)C1CN(/C(=N\C#N)Nc2ccc(F)c(OC(F)(F)F)c2)N=C1c1ccc(Cl)c(Cl)c1 (single isomer, unassigned) [Example 22.2]
Please order the records by their reported pIC50, lowest number first. Present the labels in the sequence the task asks for. b, c, a

---

study system: UniProtKB Q9NRG4
protocol text: Scintillation Proximity Assay (SPA) for detection of SMYD2 enzymatic inhibition
Format: biochemical
Design: The SMYD2 full length enzyme was produced in-house by expression (with an N-terminal 6× His tag) in E. coli; 6xHis (N); made in house; host or cells: E. coli
study conditions: SMYD2 full length enzyme, p53 Peptide substrate 1.0 μM, 3H-SAM 60 nM; read-out: IC50 [mol/l] (SPA Assay)
reported property: IC50 (nM)

>  <compound>
CCN(C(=O)[C@H]1CCCN1)C1CN(/C(=N\C#N)Nc2cccc(OC(F)(F)F)c2F)N=C1c1ccc(Cl)c(Cl)c1 (single isomer, unassigned) [Example 21.2]

>  <IC50 / nM>
878

$$$$
>  <compound>
CCN(C(=O)[C@@H]1CCCC[C@@H]1N)C1CN(/C(=N\C#N)Nc2cccc(OC(F)F)c2)N=C1c1ccc(Cl)c(Cl)c1 (mixture of isomers) [Example 43]

>  <IC50 / nM>
432

$$$$

P = CCN(C(=O)[C@H]1C[C@@H](F)CN1)C1CN(/C(=N\C#N)Nc2cccc(OC(F)F)c2)N=C1c1ccc(Cl)c(Cl)c1 (single isomer, unassigned) [Example 4.2]
Q = CCN(C(=O)[C@H]1CCCN1)C1CN(/C(=N\C#N)Nc2cccc(OC(F)(F)F)c2)N=C1c1ccc(Cl)c(Cl)c1 (mixture of isomers) [Example 17]
R = CCN(C(=O)[C@H]1C[C@@H](O)CN1)C1CN(/C(=N\C#N)Nc2cc(OC(F)(F)F)ccc2OC)N=C1c1ccc(Cl)c(Cl)c1 (mixture of isomers) [Example 20]
S = C[C@]1(C(=O)NC2CN(/C(=N\C#N)Nc3cccc(OC(F)F)c3)N=C2c2ccc(Cl)c(Cl)c2)CCCN1 (single isomer, unassigned) [Example 6.2]
T = CCN(C(=O)[C@H]1CCCN1)C1CN(/C(=N\C#N)Nc2cccc(OC(F)(F)F)c2F)N=C1c1ccc(Cl)c(Cl)c1 (mixture of isomers) [Example 21]
Highest IC50 first, then in falling order down to the smallest. Enter labels, ranked according to the request. P, S, Q, T, R
(P: 663 nM, S: 237 nM, Q: 116 nM, T: 50.5 nM, R: 22.4 nM)

---

study system: SMYD2 (Homo sapiens, UniProt Q9NRG4)
protocol text: Scintillation Proximity Assay (SPA) for detection of SMYD2 enzymatic inhibition
Type: biochemical
Set-up: The SMYD2 full length enzyme was produced in-house by expression (with an N-terminal 6× His tag) in E. coli; 6xHis (N); made in house; host or cells: E. coli
study conditions: SMYD2 full length enzyme, p53 Peptide substrate 1.0 μM, 3H-SAM 60 nM; read-out: IC50 [mol/l] (SPA Assay)
pIC50: −log10 of the molar value.
reported property: pIC50

Example results:
>  <compound>
CCN(C(=O)[C@H]1CCCN1)C1CN(/C(=N\C#N)Nc2cccc(OC(F)F)c2)N=C1c1ccc(Cl)c(Cl)c1 (mixture of isomers) [Example 1]

>  <assay result>
7.61

$$$$
>  <compound>
CCN(C(=O)[C@H]1CCCN1)C1CN(/C(=N\C#N)Nc2cc(F)cc(OC(F)(F)F)c2)N=C1c1ccc(Cl)c(Cl)c1 (mixture of isomers) [Example 24]

>  <assay result>
7.19

$$$$
>  <compound>
CCN(C(=O)[C@H]1CCCN1)C1CN(/C(=N\C#N)Nc2cccc(OC(F)(F)F)c2)N=C1c1ccc(Cl)c(Cl)c1 (single isomer, unassigned) [Example 17.1]

>  <assay result>
7.68

$$$$
>  <compound>
CCN(C(=O)[C@H]1CCN1)C1CN(/C(=N\C#N)Nc2cccc(OC(F)F)c2)N=C1c1ccc(Cl)c(C)c1 (single isomer, unassigned) [Example 36.2]

>  <assay result>
6.52

$$$$
>  <compound>
CCN(C(=O)[C@H]1CCCN1)C1CN(/C(=N\C#N)Nc2cccc(OC(F)F)c2)N=C1c1ccc(Cl)c(Cl)c1 (single isomer, unassigned) [Example 1.2]

>  <assay result>
6.44

$$$$
>  <compound>
CCN(C(=O)[C@H]1C[C@@H](F)CN1)C1CN(/C(=N\C#N)Nc2cc(F)cc(OC(F)(F)F)c2)N=C1c1ccc(Cl)c(Cl)c1 (single isomer, unassigned) [Example 25.1]

>  <assay result>
6.61

$$$$
>  <compound>
CCN(C(=O)[C@H]1CCCN1)C1CN(/C(=N\C#N)Nc2cc(OC)ccc2Cl)N=C1c1ccc(Cl)c(Cl)c1 (mixture of isomers) [Example 32]

>  <assay result>
7.42

$$$$
>  <compound>
CCN(C(=O)[C@H]1CCCN1)C1CN(/C(=N\C#N)Nc2ccc(F)c(OC)c2)N=C1c1ccc(Cl)c(Cl)c1 (mixture of isomers) [Example 33]

>  <assay result>
6.99

$$$$

I = N#C/N=C(/Nc1cccc(OC(F)F)c1)N1CC(NC(=O)C2(N)CCC2)C(c2ccc(Cl)c(Cl)c2)=N1 (racemic) [Example 9]
II = CCN(C(=O)[C@H]1CCN1)C1CN(/C(=N\C#N)Nc2cccc(OC(F)F)c2)N=C1c1ccc(Cl)c(C)c1 (single isomer, unassigned) [Example 36.1]
III = CCN(C(=O)[C@H]1C[C@@H](O)CN1)C1CN(/C(=N\C#N)Nc2cccc(OC(F)F)c2)N=C1c1ccc(Cl)c(Cl)c1 (single isomer, unassigned) [Example 3.1]
IV = CCN(C(=O)[C@H]1CCCN1)C1CN(/C(=N\C#N)Nc2ccc(F)c(OC(F)(F)F)c2)N=C1c1ccc(Cl)c(Cl)c1 (mixture of isomers) [Example 22]
Sort these compounds on pIC50 so the largest reading comes first. Provide the ranking by listing each label in its place in the requested order. II, III, IV, I
